The molecules listed here are annotated with their viability, T/C.
System: NCI-H196 complex spheroid growth, percent test/control
Assay: Anticancer human tumor NCI-H196 cell line growth inhibition [AhR];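 further: seven days of drug exposure starting three days after plating; 100% = DMSO vehicle control wells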
Conditions: second compound 3.16 µM; first compound 0.0949 µM; hits give low values
Excerpt: Multicellular complex tumor spheroid response to aryl hydrocarbon receptor antagonists in combination with a variety of drugs and investigational agents in selected tumor cell lines […] Compounds. […] If the clinical Cmax for an agent had not been determined, the highest concentration tested was 10 microM (Table 1). […]
# number only, unit % dropped from output

[
  {
    "Molecule": "Nc1ncn(C2CC(O)C(CO)S2)c(=O)n1 (stereo unspecified) + Cc1ccccc1N=Nc1ccc(NC(=O)c2ccnn2C)c(C)c1",
    "viability, T/C / %": 97.7
  }
]

O=C(C=Cn1cnc(-c2cc(C(F)(F)F)cc(C(F)(F)F)c2)n1)NNc1cnccn1 + CC(CO)NC(=O)c1cc(-c2ccc(Cl)cc2)nn(-c2cnn(C)c2)c1=O has a reported viability, T/C of 16.4

Noted for CC(C)CC(NC(=O)C(Cc1ccccc1)NC(=O)c1cnccn1)B(O)O (stereo unspecified) + Cc1ccccc1N=Nc1ccc(NC(=O)c2ccnn2C)c(C)c1 : its viability, T/C reads 3.34

For this molecule ( CCc1c2c(nc3ccc(O)cc13)-c1cc3c(c(=O)n1C2)COC(=O)[C@]3(O)CC + CC(CO)NC(=O)c1cc(-c2ccc(Cl)cc2)nn(-c2cnn(C)c2)c1=O ), measured viability, T/C is 101

Reported viability, T/C of CC(C)CC(NC(=O)C(Cc1ccccc1)NC(=O)c1cnccn1)B(O)O (stereo unspecified) + CC(CO)NC(=O)c1cc(-c2ccc(Cl)cc2)nn(-c2cnn(C)c2)c1=O : 1.7

In plain terms, Nc1ncn(C2CC(O)C(CO)S2)c(=O)n1 (stereo unspecified) + Cc1cncc(-c2nc(NCCc3c[nH]c4ccccc34)c3ncn(C(C)C)c3n2)c1 has a documented viability, T/C of 116
